System: CU-ACC1
assayInfo: area under concentration-response curve (viability) (AUC (a.u.)); higher = less active
runConditions: 48 h
recordedMetric: area under concentration-response curve
// no unit string in output, number only

> print(dat)
                                   molecule  datavalue
1  CN(C)C1=C(Br)C=C(C=C1)C\2NC3=C(\C4=C2C(=O)CC(C)(C)C4)C5=CC=CC=C5C=C3 (configuration not stated)        506

q: State the recorded area under concentration-response curve for this entry: CC(=O)O/N=C1/C(=C2\C(=O)Nc3cc(Br)ccc32)Nc2ccccc21
a: 492

q: State the recorded area under concentration-response curve for this entry: O=C(NCCCNc1nc(Nc2cccc(NC(=O)N3CCCC3)c2)ncc1I)c1cccs1
a: 498

q: State the recorded area under concentration-response curve for this entry: CC(C)C[C@@H]1NC(=O)[C@@H](C(C)C)NC(=O)[C@@H]2CCCN2C(=O)[C@@H](CC(=O)O)NC(=O)[C@@H](Cc2c[nH]c3ccccc23)NC1=O
a: 489

q: State the recorded area under concentration-response curve for this entry: C1CN\2C[C@@H](\N=C2S1)C3=CC=CC=C3
a: 506

q: State the recorded area under concentration-response curve for this entry: Cc1cnc(Nc2ccc(OCCN3CCCC3)cc2)nc1Nc1cccc([S+](=O)([O-])NC(C)(C)C)c1
a: 491

q: State the recorded area under concentration-response curve for this entry: CCCCCOC(=O)NC\1=N\C(=O)N(\C=C1F)[C@@H]2O[C@H](C)[C@@H](O)[C@H]2O
a: 512

---

Tested on: NCI-H295R
assayInfo: area under concentration-response curve (viability) (AUC (a.u.)); higher = less active
runConditions: 48 h
Assign class by area under concentration-response curve: not lower than 500 means Criterion met; lower than 500 means Criterion not met.

q: API: above_or_equal(metric=area under concentration-response curve, cutoff=500) for item CN(C)Cc1ccc([S+](=O)([O-])n2ccc(/C=C/C(=O)NO)c2)cc1
a: Criterion not met

q: API: above_or_equal(metric=area under concentration-response curve, cutoff=500) for item CC(C)C(=O)Nc1ccc([N+](=O)[O-])c(C(F)(F)F)c1
a: Criterion met

q: API: above_or_equal(metric=area under concentration-response curve, cutoff=500) for item COc1cc(OC)c(/C=C/[S+](=O)([O-])Cc2ccc(OC)c(NCC(=O)[O-])c2)c(OC)c1
a: Criterion not met

q: API: above_or_equal(metric=area under concentration-response curve, cutoff=500) for item O=C(NCC(=O)N1CC[C@H](NC2CCC(O)(c3ccc(-c4ncccn4)cn3)CC2)C1)c1cccc(C(F)(F)F)c1 (stereo partly specified)
a: Criterion met

q: API: above_or_equal(metric=area under concentration-response curve, cutoff=500) for item c1cc(CN2CCCNCCNCCCNCC2)ccc1CN1CCCNCCNCCCNCC1
a: Criterion not met

q: API: above_or_equal(metric=area under concentration-response curve, cutoff=500) for item Cc1ncc(OC[C@@]2(c3cccc(F)c3)C[C@H]2C(=O)Nc2ccc(F)cn2)c(C)n1
a: Criterion met

q: API: above_or_equal(metric=area under concentration-response curve, cutoff=500) for item CC(C)c1cc(CNc2nc(Nc3cc(C4CC4)[nH]n3)cc(N3CCN(C)CC3)n2)on1
a: Criterion not met

q: API: above_or_equal(metric=area under concentration-response curve, cutoff=500) for item CC(C)(O)C[S+](=O)([O-])Nc1ccc2c(c1)CCN(C(=O)COc1cccnc1)C2
a: Criterion not met

---

Tested on: CU-ACC2
assayInfo: area under concentration-response curve (viability) (AUC (a.u.)); higher = less active
runConditions: 48 h
Assign class by area under concentration-response curve: not lower than 500 means Met; lower than 500 means Not met.

> print(dat)
                               compound  labelvalue
1  N\C1=N\C2=C(N=C[N]2COC(CO)CO)C(=O)N1         Met

q: API: above_or_equal(metric=area under concentration-response curve, cutoff=500) for item O=C1c2ccccc2-c2n[nH]c3cccc1c23
a: Met

q: API: above_or_equal(metric=area under concentration-response curve, cutoff=500) for item CC1COC2(CCN(CC2)C/3=N/C(=O)C4=CC(=CC(=C4S3)[N+]([O-])=O)C(F)(F)F)O1 (configuration not stated)
a: Not met

q: API: above_or_equal(metric=area under concentration-response curve, cutoff=500) for item NCC(=O)NC1=CC(=CN=C1)\C2=N\N/3C(=O)\C=C(/N=C3S2)N4CCNCC4
a: Not met

---

Test system: NCI-H295R
assayInfo: area under concentration-response curve (viability) (AUC (a.u.)); higher = less active
runConditions: 48 h
Assign class by area under concentration-response curve: not lower than 500 means criterion met; lower than 500 means criterion not met.

Use the examples below as a reference point.
> print(dat)
                                   compound         labelvalue
1  N#CC(c1ccnc(NCCc2cccnc2)n1)c1nc2ccccc2s1 (configuration not stated)  criterion not met
2  COC(=O)C[C@](O)(CCCC(C)(C)O)C(=O)O[C@@H]1C(OC)=CC23CCCN2CCc2cc4c(cc2[C@H]13)OCO4 (some centres not stated)  criterion not met
3  Cc1cc(SCc2sc(-c3ccc(C(F)(F)F)cc3)nc2C)ccc1OCC(=O)O      criterion met
4  COc1cc(-c2nn(C3CCC(N4CCN(C(C)=O)CC4)CC3)c3ncnc(N)c23)ccc1NC(=O)c1cc2ccccc2n1C (configuration not stated)  criterion not met

q: API: above_or_equal(metric=area under concentration-response curve, cutoff=500) for item Cc1cc(-c2cc(OC(=O)c3ccccc3)ccc2Cl)cc2nnc(Nc3ccc(OCCN4CCCC4)cc3)nc12
a: criterion met

q: API: above_or_equal(metric=area under concentration-response curve, cutoff=500) for item CN(C)C/C=C/C(=O)Nc1cccc(C(=O)Nc2cccc(Nc3ncc(Cl)c(-c4c[nH]c5ccccc45)n3)c2)c1
a: criterion not met

q: API: above_or_equal(metric=area under concentration-response curve, cutoff=500) for item N/C(=N\OCC(O)CN1CCCCC1)c1cccnc1 (configuration not stated)
a: criterion not met

q: API: above_or_equal(metric=area under concentration-response curve, cutoff=500) for item Nc1nc(OCc2cc(Br)cs2)c2[nH]cnc2n1
a: criterion met

q: API: above_or_equal(metric=area under concentration-response curve, cutoff=500) for item Nc1nccc(-c2ccc3noc(-c4ccc(Cl)cc4)c3c2)n1
a: criterion not met

q: API: above_or_equal(metric=area under concentration-response curve, cutoff=500) for item Cc1ccc(C(C)(O)c2nc3ccccc3s2)c(C)c1 (configuration not stated)
a: criterion not met

q: API: above_or_equal(metric=area under concentration-response curve, cutoff=500) for item COC(=O)/C=C/C(=O)OC
a: criterion met

q: API: above_or_equal(metric=area under concentration-response curve, cutoff=500) for item Clc1ccc(C(Cn2ccnc2)OCc2c(Cl)cccc2Cl)c(Cl)c1 (configuration not stated)
a: criterion not met

q: API: above_or_equal(metric=area under concentration-response curve, cutoff=500) for item O=C(O)c1ccccc1-c1ccc(/C=c2\sc3nc4cc(Br)cnc4n3c2=O)o1
a: criterion met

---

Recorded area under concentration-response curve, one value per entry.
System: NCI-H295R
assayInfo: area under concentration-response curve (viability) (AUC (a.u.)); higher = less active
runConditions: 48 h
// no unit string in output, number only

> print(dat)
                                   molecule                           recordedmetric  datavalue
1  N#Cc1ccc(Cn2cncc2CN2CCN(c3cccc(Cl)c3)C(=O)C2)cc1  area under concentration-response curve        514
2  CCN(C)[S+](=O)([O-])Nc1ccc(F)c(C(=O)c2c[nH]c3ncc(-c4cnc(C5CC5)nc4)cc23)c1F  area under concentration-response curve        502
3  C[C@H]1C[C@@H](n2c(Nc3ccc(OC(F)(F)F)cc3)nc3cc(CCC(=O)O)ccc32)CC(C)(C)C1  area under concentration-response curve        485
4  C[C@@H]1CCN(C(=O)N2CCCC2)C[C@@H]1N(C)c1ncnc2[nH]ccc12  area under concentration-response curve        505
5  O=C(NOCC(O)CO)c1ccc(F)c(F)c1Nc1ccc(I)cc1F (centres undefined)  area under concentration-response curve        488

q: State the recorded area under concentration-response curve for this entry: CC(C)(CO)n1cc(C(=O)c2cncc(NC(=O)Cc3ccc(Cl)cn3)c2)c2cnc(N)nc21
a: 496

q: State the recorded area under concentration-response curve for this entry: CC[C@H](CC#N)OC(=O)N[C@@H](C)c1cccc(NC(=O)Nc2ccc(-c3cnco3)c(OC)c2)c1
a: 489

q: State the recorded area under concentration-response curve for this entry: CCOC(=O)Nc1ccc(NCc2ccc(F)cc2)nc1N
a: 504

q: State the recorded area under concentration-response curve for this entry: CCN1CCN(CC1)CC(=O)NC2=CC=C(C3=C2C4=C(S3)C=CC=C4)C5=C6O\C(=C/C(=O)C6=CC=C5)N7CCOCC7
a: 494

Entry source: the supplement of paper PMC10949913
